System: SK-MEL-5
Experiment: Growth inhibition of human SK-MEL-5 cells incubated for 48 hrs by sulforhodamine B assay
Type: functional
Settings: SK-MEL-5, 48 h
Examples of compounds with documented GI50 follow.

- Substance Smiles: "CC(C)[C@@]12C[C@@H](NC(=O)CO)[C@@](C)(O1)[C@@H]1CC[C@@H](C)[C@H]1[C@@H]2OC(=O)/C=C/C1CCCCC1"
  GI50: "> 44.7 µM"
- Substance Smiles: "CC(C)[C@@]12C[C@@H](NC(=O)CO)[C@@](C)(O1)[C@@H]1CC[C@@H](C)[C@H]1[C@@H]2OC(=O)/C=C/c1ccccc1"
  GI50: "12.9 µM"
- Substance Smiles: "CC(C)[C@@]12C[C@@H](NC(=O)CO)[C@@](C)(O1)[C@@H]1CC[C@@H](C)[C@H]1[C@@H]2OC(=O)c1ccc2ccccc2c1"
  GI50: "16.6 µM"
- Substance Smiles: "C/C(=C\\C(=O)O[C@H]1[C@@H]2[C@H](C)CC[C@H]2[C@]2(C)O[C@@]1(C(C)C)C[C@H]2NC(=O)CO)c1ccccc1"
  GI50: "19.5 µM"

###

Examples of molecules with documented TGI follow.
Assay: Growth inhibition of human SF539 cells incubated for 48 hrs by sulforhodamine B assay
Type: functional
Conditions: SF-539, 48 h, read-out: pTGI (converted)

- Substance Smiles: "CC(C)[C@@]12C[C@@H](NC(=O)CO)[C@@](C)(O1)[C@@H]1CC[C@@H](C)[C@H]1[C@@H]2OC(=O)/C=C/c1ccccc1"
  TGI: "> 50.1 µM"
- Substance Smiles: "C/C(=C\\C(=O)O[C@H]1[C@@H]2[C@H](C)CC[C@H]2[C@]2(C)O[C@@]1(C(C)C)C[C@H]2NC(=O)CO)c1ccccc1"
  TGI: "> 100 µM"
- Substance Smiles: "CC(C)[C@@]12C[C@@H](NC(=O)CO)[C@@](C)(O1)[C@@H]1CC[C@@H](C)[C@H]1[C@@H]2OC(=O)/C=C/C1CCCCC1"
  TGI: "> 44.7 µM"
- Substance Smiles: "CC(C)[C@@]12C[C@@H](NC(=O)CO)[C@@](C)(O1)[C@@H]1CC[C@@H](C)[C@H]1[C@@H]2OC(=O)c1ccc2ccccc2c1"
  TGI: "29.5 µM"

###

Examples of compounds with documented TGI follow.
Test system: NCI-H522
Assay: Growth inhibition of human NCI-H522 cells incubated for 48 hrs by sulforhodamine B assay
Type: functional
Conditions: NCI-H522, 48 h, read-out: pTGI (converted)

- Substance Smiles: "CC(C)[C@@]12C[C@@H](NC(=O)CO)[C@@](C)(O1)[C@@H]1CC[C@@H](C)[C@H]1[C@@H]2OC(=O)/C=C/C1CCCCC1"
  Value Units: "µM"
  Reading Qualifier: ">"
  TGI: 44.7
- Substance Smiles: "CC(C)[C@@]12C[C@@H](NC(=O)CO)[C@@](C)(O1)[C@@H]1CC[C@@H](C)[C@H]1[C@@H]2OC(=O)c1ccc2ccccc2c1"
  Value Units: "µM"
  Reading Qualifier: "="
  TGI: 29.5
- Substance Smiles: "C/C(=C\\C(=O)O[C@H]1[C@@H]2[C@H](C)CC[C@H]2[C@]2(C)O[C@@]1(C(C)C)C[C@H]2NC(=O)CO)c1ccccc1"
  Value Units: "µM"
  Reading Qualifier: "="
  TGI: 81.3
- Substance Smiles: "CC(C)[C@@]12C[C@@H](NC(=O)CO)[C@@](C)(O1)[C@@H]1CC[C@@H](C)[C@H]1[C@@H]2OC(=O)/C=C/c1ccccc1"
  Value Units: "µM"
  Reading Qualifier: ">"
  TGI: 50.1

###

System: U-251
Assay: Growth inhibition of human U251 cells incubated for 48 hrs by sulforhodamine B assay
Type: functional
Conditions: U-251, 48 h, read-out: pTGI (converted)
Value Type: TGI

- Substance Smiles: "CC(C)[C@@]12C[C@@H](NC(=O)CO)[C@@](C)(O1)[C@@H]1CC[C@@H](C)[C@H]1[C@@H]2OC(=O)c1ccc2ccccc2c1"
  Test Result: "30.2 µM"
- Substance Smiles: "C/C(=C\\C(=O)O[C@H]1[C@@H]2[C@H](C)CC[C@H]2[C@]2(C)O[C@@]1(C(C)C)C[C@H]2NC(=O)CO)c1ccccc1"
  Test Result: "> 100 µM"
- Substance Smiles: "CC(C)[C@@]12C[C@@H](NC(=O)CO)[C@@](C)(O1)[C@@H]1CC[C@@H](C)[C@H]1[C@@H]2OC(=O)/C=C/c1ccccc1"
  Test Result: "> 50.1 µM"
- Substance Smiles: "CC(C)[C@@]12C[C@@H](NC(=O)CO)[C@@](C)(O1)[C@@H]1CC[C@@H](C)[C@H]1[C@@H]2OC(=O)/C=C/C1CCCCC1"
  Test Result: "> 44.7 µM"

###

Experiment: Growth inhibition of human HCC2998 cells incubated for 48 hrs by sulforhodamine B assay
Type: functional
Details: HCC 2998, 48 h

- Substance Smiles: "C/C(=C\\C(=O)O[C@H]1[C@@H]2[C@H](C)CC[C@H]2[C@]2(C)O[C@@]1(C(C)C)C[C@H]2NC(=O)CO)c1ccccc1"
  LC50: "> 100 µM"
- Substance Smiles: "CC(C)[C@@]12C[C@@H](NC(=O)CO)[C@@](C)(O1)[C@@H]1CC[C@@H](C)[C@H]1[C@@H]2OC(=O)/C=C/C1CCCCC1"
  LC50: "> 44.7 µM"
- Substance Smiles: "CC(C)[C@@]12C[C@@H](NC(=O)CO)[C@@](C)(O1)[C@@H]1CC[C@@H](C)[C@H]1[C@@H]2OC(=O)/C=C/c1ccccc1"
  LC50: "> 50.1 µM"
- Substance Smiles: "CC(C)[C@@]12C[C@@H](NC(=O)CO)[C@@](C)(O1)[C@@H]1CC[C@@H](C)[C@H]1[C@@H]2OC(=O)c1ccc2ccccc2c1"
  LC50: "57.5 µM"

###

Examples of molecules with documented growth at 10 µM follow.
Experiment: Growth inhibition of human SNB75 cells assessed as cell growth at 10 uM incubated for 48 hrs by sulforhodamine B assay relative to control
Type: functional
Settings: SNB-75, 48 h, read-out: Activity

- Substance Smiles: "CC(C)[C@@]12C[C@@H](NC(=O)CF)[C@@](C)(O1)[C@@H]1CC[C@@H](C)[C@H]1[C@@H]2OC(=O)/C=C/c1ccccc1"
  Value Units: "%"
  growth at 10 µM: 87.9
- Substance Smiles: "CC(C)[C@@]12C[C@@H](NC(=O)CO)[C@@](C)(O1)[C@@H]1CC[C@@H](C)[C@H]1[C@@H]2OC(=O)c1ccc2ccccc2c1"
  Value Units: "%"
  growth at 10 µM: 72.7
- Substance Smiles: "CC(C)[C@@]12C[C@@H](NC(=O)CO)[C@@](C)(O1)[C@@H]1CC[C@@H](C)[C@H]1[C@@H]2OC(=O)/C=C/c1ccccc1"
  Value Units: "%"
  growth at 10 µM: 59.6
- Substance Smiles: "C/C(=C\\C(=O)O[C@H]1[C@@H]2[C@H](C)CC[C@H]2[C@]2(C)O[C@@]1(C(C)C)C[C@H]2NC(=O)CO)c1ccccc1"
  Value Units: "%"
  growth at 10 µM: 102
- Substance Smiles: "CC(C)[C@@]12C[C@@H](NC(=O)CO)[C@@](C)(O1)[C@@H]1CC[C@@H](C)[C@H]1[C@@H]2OC(=O)/C=C/C1CCCCC1"
  Value Units: "%"
  growth at 10 µM: 86.1

###

Examples of compounds with documented TGI follow.
Experiment: Growth inhibition of human SF295 cells incubated for 48 hrs by sulforhodamine B assay
Type: functional
Conditions: SF-295, 48 h, read-out: pTGI (converted)

- Substance Smiles: "CC(C)[C@@]12C[C@@H](NC(=O)CO)[C@@](C)(O1)[C@@H]1CC[C@@H](C)[C@H]1[C@@H]2OC(=O)c1ccc2ccccc2c1"
  TGI: "30.2 µM"
- Substance Smiles: "CC(C)[C@@]12C[C@@H](NC(=O)CO)[C@@](C)(O1)[C@@H]1CC[C@@H](C)[C@H]1[C@@H]2OC(=O)/C=C/C1CCCCC1"
  TGI: "> 44.7 µM"
- Substance Smiles: "C/C(=C\\C(=O)O[C@H]1[C@@H]2[C@H](C)CC[C@H]2[C@]2(C)O[C@@]1(C(C)C)C[C@H]2NC(=O)CO)c1ccccc1"
  TGI: "> 100 µM"
- Substance Smiles: "CC(C)[C@@]12C[C@@H](NC(=O)CO)[C@@](C)(O1)[C@@H]1CC[C@@H](C)[C@H]1[C@@H]2OC(=O)/C=C/c1ccccc1"
  TGI: "> 50.1 µM"

###

Assay: Plasma concentration in mouse at 20 mg/kg, po administered through gavage after 8 hrs by LC-MS/MS analysis
Type: ADME, organism-based
Value Type: concentration at 8 h

- Substance Smiles: "CC(C)[C@@]12C[C@@H](NC(=O)CO)[C@@](C)(O1)[C@@H]1CC[C@@H](C)[C@H]1[C@@H]2OC(=O)/C=C/c1ccccc1"
  Value Type: "concentration at 8 h"
  Test Result: "67.8 ng/mL"

Source of measurements: ChEMBL document CHEMBL3804761
